Taken from the supplement of paper PMC6555819.

System: RARg:RXRa (NR concentration 270 nM, RXRa partner concentration 90 nM)
Assay: PBM binding z-score (relative to random genomic background probes); higher = stronger binding; sequences stand for … in GC…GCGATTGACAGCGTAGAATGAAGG
Listing: PBM binding z-score of selected sequences
Enter a number only.

Query: Reported PBM binding z-score for AGAATGAGGTTAAGATCAGGGAGACAGAATACAT : what is it?
Response: 1.94

***
Query: Reported PBM binding z-score for ATATGTAGGTTATCGGGTCATTCTGTTTGCGCAT : what is it?
Response: 3.37

Query: Reported PBM binding z-score for AGAATGAAGTTAAGATCAGGGAAACAGAATACAT : what is it?
Response: 0.141

Query: Reported PBM binding z-score for TCTTGTAGATCGAAGGTTAAGAAAGCCGAAGCCT : what is it?
Response: 0.243

====

Tested on: PPARg:RXRa 270nM:90nM, anti-RXR (NR concentration 270 nM, RXRa partner concentration 90 nM)
Test: PBM binding z-score (relative to random genomic background probes); higher = stronger binding; sequences stand for … in GC…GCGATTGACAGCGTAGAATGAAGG
Listing: PBM binding z-score of selected sequences

Illustrative cases are given below, each with its answer.
Query: Reported PBM binding z-score for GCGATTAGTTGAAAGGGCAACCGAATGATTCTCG : what is it?
Response: 3.51

Query: Reported PBM binding z-score for TCTAGTTGGTTAAAGGTCACACACTCGAAATGCG : what is it?
Response: 8.64

Query: Reported PBM binding z-score for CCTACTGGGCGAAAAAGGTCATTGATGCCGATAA : what is it?
Response: 3.1

Query: Reported PBM binding z-score for GGAACGAGGGCATTCGAGTTGCTAGCATGGCGAT : what is it?
Response: 0.479

Query: Reported PBM binding z-score for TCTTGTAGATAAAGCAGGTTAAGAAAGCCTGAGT : what is it?
Response: 1.54

***
Query: Reported PBM binding z-score for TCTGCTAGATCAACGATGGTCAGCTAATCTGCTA : what is it?
Response: 0.492

Query: Reported PBM binding z-score for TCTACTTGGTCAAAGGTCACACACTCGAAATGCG : what is it?
Response: 9.98

Query: Reported PBM binding z-score for ATCGAAAGGTCGTGAGGTGAGTATCCAGAAAGGC : what is it?
Response: 4.31

Query: Reported PBM binding z-score for TCTGCTAGGTCAATTGGTCAGCTAACGAGCTGCC : what is it?
Response: 2.76

Query: Reported PBM binding z-score for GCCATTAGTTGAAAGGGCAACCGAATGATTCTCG : what is it?
Response: 4.11

Query: Reported PBM binding z-score for TGAATGAGGTTAAAGATCAGGGAACGTGGCGTCG : what is it?
Response: 6.57

Query: Reported PBM binding z-score for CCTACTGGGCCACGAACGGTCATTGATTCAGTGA : what is it?
Response: 1.36

Query: Reported PBM binding z-score for TCTATTAGTTGATTAGGGCGACCGAAACAGCGGA : what is it?
Response: 1.73

Query: Reported PBM binding z-score for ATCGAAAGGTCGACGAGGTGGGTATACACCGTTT : what is it?
Response: 2.89

Query: Reported PBM binding z-score for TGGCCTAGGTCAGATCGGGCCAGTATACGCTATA : what is it?
Response: 0.442

Query: Reported PBM binding z-score for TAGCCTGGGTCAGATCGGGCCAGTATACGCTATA : what is it?
Response: 0.64

Query: Reported PBM binding z-score for CCTAGTTGGTCAGTAGGTCACACACCGGATATGA : what is it?
Response: 4.46

====

Test system: VDR homodimer (NR concentration 270 nM)
Assay: PBM binding z-score (relative to random genomic background probes); higher = stronger binding; sequences stand for … in GC…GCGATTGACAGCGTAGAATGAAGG
Would you mind labelling by PBM binding z-score? At or over 0.4 is condition met, under is condition not met.

// known answers, use as guide
Query: Check if PBM binding z-score >= 0.4 (inclusive). Item: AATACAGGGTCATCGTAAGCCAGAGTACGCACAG
Response: condition met

Query: Check if PBM binding z-score >= 0.4 (inclusive). Item: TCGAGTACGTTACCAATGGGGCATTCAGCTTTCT
Response: condition met

***
Query: Check if PBM binding z-score >= 0.4 (inclusive). Item: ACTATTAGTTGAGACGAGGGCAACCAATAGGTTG
Response: condition met

Query: Check if PBM binding z-score >= 0.4 (inclusive). Item: CCAGACAGGTAAGAAGGTAACTCAGCCTCGATTA
Response: condition not met

Query: Check if PBM binding z-score >= 0.4 (inclusive). Item: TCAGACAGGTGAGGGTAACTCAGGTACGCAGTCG
Response: condition not met

====

Tested on: RARa homodimer (NR concentration 270 nM)
Assay: PBM binding z-score (relative to random genomic background probes); higher = stronger binding; sequences stand for … in GC…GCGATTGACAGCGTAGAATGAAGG
Observed property: PBM binding z-score
Enter a number only.

Illustrative cases are given below, each with its answer.
Query: Reported PBM binding z-score for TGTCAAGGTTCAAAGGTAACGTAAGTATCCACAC : what is it?
Response: 0.446

Query: Reported PBM binding z-score for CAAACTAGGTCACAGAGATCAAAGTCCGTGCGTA : what is it?
Response: 0.89

Query: Reported PBM binding z-score for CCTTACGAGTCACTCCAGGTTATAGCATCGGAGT : what is it?
Response: 1.56

Query: Reported PBM binding z-score for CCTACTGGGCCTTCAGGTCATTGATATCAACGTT : what is it?
Response: -0.361

Query: Reported PBM binding z-score for CGTCCAAGGTCAATGCTAGGTCAGTGATAGCATT : what is it?
Response: 2.14

***
Query: Reported PBM binding z-score for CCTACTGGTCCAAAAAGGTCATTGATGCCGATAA : what is it?
Response: 2.48

Query: Reported PBM binding z-score for ATCAAAAGGTCGTGAGGTGAGTATACAGAAAGGC : what is it?
Response: 1.26

Query: Reported PBM binding z-score for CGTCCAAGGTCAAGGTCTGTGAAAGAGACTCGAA : what is it?
Response: 1.7

Query: Reported PBM binding z-score for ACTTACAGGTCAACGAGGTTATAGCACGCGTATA : what is it?
Response: 1.81

Query: Reported PBM binding z-score for AGAACGAGAGCACGCTGAGTTGATAGCAGAGTAG : what is it?
Response: -1.23

Query: Reported PBM binding z-score for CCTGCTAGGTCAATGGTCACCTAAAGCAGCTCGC : what is it?
Response: -0.122

Query: Reported PBM binding z-score for TGAATGAGGTTAAAGATCAGGAAACGTGGCGTCG : what is it?
Response: -0.294

Query: Reported PBM binding z-score for AGTCAAAGTTCAGGACGAGGGAACGTAAAGCACG : what is it?
Response: 0.539

Query: Reported PBM binding z-score for CCTGCTAGGCCATGGTCAGCTAATCTACAGTATG : what is it?
Response: -0.715

Query: Reported PBM binding z-score for TCTTGTAGATCAACAGTAGGTTAAGAAAGATCGA : what is it?
Response: 0.265

Query: Reported PBM binding z-score for CCGACTAGGTTATGGGGCATTCAGGCAACGGTGA : what is it?
Response: -0.167

Query: Reported PBM binding z-score for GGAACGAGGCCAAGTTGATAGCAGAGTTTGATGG : what is it?
Response: -0.416

Query: Reported PBM binding z-score for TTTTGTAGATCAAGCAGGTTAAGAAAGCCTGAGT : what is it?
Response: 0.538

Query: Reported PBM binding z-score for CCTATTAGTCGACCATAAGGGCAACCGAAGCTCG : what is it?
Response: 0.709

Query: Reported PBM binding z-score for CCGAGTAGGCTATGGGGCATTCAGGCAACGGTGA : what is it?
Response: -0.463

====

Tested on: RARg:RXRa (NR concentration 270 nM, RXRa partner concentration 90 nM)
Assay: PBM binding z-score (relative to random genomic background probes); higher = stronger binding; sequences stand for … in GC…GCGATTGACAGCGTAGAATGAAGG
Would you mind labelling by PBM binding z-score? At or over 1 is 1, under is 0.

Query: Check if PBM binding z-score >= 1 (inclusive). Item: TTGAGTAGGTTACCAATGGGGCATTCAGCTTTCT
Response: 1

Query: Check if PBM binding z-score >= 1 (inclusive). Item: TCTAGTTGGTAAAAGGTCACACACTCGAAATGCG
Response: 1

Query: Check if PBM binding z-score >= 1 (inclusive). Item: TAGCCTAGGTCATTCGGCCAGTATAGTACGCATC
Response: 1

***
Query: Check if PBM binding z-score >= 1 (inclusive). Item: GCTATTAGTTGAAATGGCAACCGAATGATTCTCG
Response: 0

Query: Check if PBM binding z-score >= 1 (inclusive). Item: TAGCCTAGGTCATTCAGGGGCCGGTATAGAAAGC
Response: 1

Query: Check if PBM binding z-score >= 1 (inclusive). Item: AGTCAAAGTTCATCTAGGTTACGTAAGATATGCT
Response: 1

Query: Check if PBM binding z-score >= 1 (inclusive). Item: CCTACTGGGCCATTCAGAGGTCAGTGATCATATG
Response: 1
